Where do the numbers come from? From patent US10597388B2.

- System: radish, wild (wild radish, Raphanus raphanistrum)
- test_details: Test D controlled growth environment herbicide test, pre- and postemergence
- Format: in vivo
- measurement_parameters: Preemergence, 125 g ai/ha; scale 0 to 100 (0 no effect, 100 complete control)
recorded_metric: Plant response rating, Radish, Wild

>>> df
                                   compound  value_measured
0    Cc1cc2ccccc2c(-c2c(O)c(C)nn(C)c2=O)c1C              60
1  COC(=O)Oc1c(C)nn(C)c(=O)c1-c1c(C)sc2ccc(C)cc12             100
2  Cc1nn(C)c(=O)c(-c2c(C)sc3c(C)cc(Cl)cc23)c1O             100
3        Cc1nn(C)c(=O)c(-c2cccc3ccccc23)c1O              20
4  Cc1ccc2sc(C)c(-c3c(OC(=O)OC(C)C)c(C)nn(C)c3=O)c2c1              75
5  Cc1ccc2sc(Br)c(-c3c(O)c(C)nn(C)c3=O)c2c1              45
6    CCc1sc2ccc(C)cc2c1-c1c(O)c(C)nn(C)c1=O             100
7    Cc1nn(C)c(=O)c(-c2ccc(Br)c3ccccc23)c1O             100
